- Experimental details: Elimination half life in human
- Assay type: ADME
- Test context: read-out: beta t1/2
Reported endpoint: half-life

Per the records, this compound ( COc1ccc(Cl)cc1[C@]1(F)C(=O)Nc2cc(C(F)(F)F)ccc21 [FLINDOKALNER] ) has half-life equal to > 7 days

* * *

- Experimental details: Metabolic stability in human plasma assessed as half life
Reported endpoint: half-life
Put down the number, then write its unit next to it.

For record COc1ccc2[nH]c([S+]([O-])Cc3ncc(C)c(OC)c3C)nc2c1 (stereo unspecified) the listed half-life is 1 h

* * *

- Experimental details: Clearance in Wistar rat at 3 mg/kg, iv incubated for 24 hrs by LC-MS/MS analysis
- Format: ADME, organism-based
- Test context: in vivo
Reported endpoint: clearance (mL/min/kg)
Express your answer in mL/min/kg, writing the number without its unit.

The compound listed as "C[C@H](O)[C@H]1CC[C@H]2[C@@H]3CC[C@H]4CC(C(=O)O)=CC[C@]4(C)[C@H]3CC[C@]12C" has a reported clearance of 0.4
